Biological target: T1, biotinylated cynoPD1-ECD-Biotin (cynomolgus)
T1 construct: extracellular domain; also called cyPD1
Test: ELISA on coated cynoPD1-ECD-Biotin
Each item that follows carries a reported EC50.
State just the number; it will be interpreted in µg/mL.

1. PD1-0102 (antibody, V domains shown) VH: DVQLQESGPDLVKPSQSLSLTCTVTGYSITSGYSWHWIRQFPGNKLEWMGFIHSSGDTNYNPSLKSRISFTRDTSKNQFFLQLSSLTDEDTATYYCATYRNWYFDVWGAGTTVTVSS VL: DIVMTQSPSSLTVTAGEKVTMRCKSSQSLLNSGTQKNYLTWYQQKPGQPPKLLIYWASTRESGVPNRFTGSGSGTDFTLTISSVQAEDLSVYYCQSDYTFPLTFGGGTKLELK : 0.0527

Recorded EC50 of PD1-0098 (antibody, V domains shown) VH: DVQLQESGPGLVKPSQSLSLTCTVTGYSITSDYAWNWIRQFPGDKLEWLGYITYSGFTNYNPSLKSRISISRDTSKNQFFLQLNSVATEDTATYYCARWHGSAPWYFDYWGRGTTLTVSS VL: DVLMTQTPLSLPVSLGDQASISCRSSQNIVHSDGNTYLEWYLQKPGQSPNLLIYKVSRRFSGVPDRFSGSGSGTDFTLKISRVEAEDLGVYYCFQGSHFPLTFGAGTKLELK , please.
0.0546

And for PD1-0078 (antibody, V domains shown) VH: QVQLQQPGAELVKPGASVKMSCKASGYTFTSTWMHWVKQRPGQGLEWIGAIDPSDSYTTYNQKFKGKATLTVDTSSTTAYMQLSSLTSEDSAVYYCTRSPFDYWGQGTTLTVSS VL: DIVMTQSHKFMSTSVGDRVSITCKASQDVSTAVAWYQQKPGQSPKLLIYSASYRYTGVPDRFTGSGSGTDFTFAISSVQAEDLAVYYCQQHYSHPFTFGSGTKLEIK ?
0.0224

Cited source: patent US20190322748A1
